Where these numbers come from: ChEMBL document CHEMBL1128478

target: Endothelin receptor type B (Rattus norvegicus, UniProt P21451); assay: Binding affinity against endothelin B receptor rat cerebellar membranes.
Sequence (P21451 whole entry): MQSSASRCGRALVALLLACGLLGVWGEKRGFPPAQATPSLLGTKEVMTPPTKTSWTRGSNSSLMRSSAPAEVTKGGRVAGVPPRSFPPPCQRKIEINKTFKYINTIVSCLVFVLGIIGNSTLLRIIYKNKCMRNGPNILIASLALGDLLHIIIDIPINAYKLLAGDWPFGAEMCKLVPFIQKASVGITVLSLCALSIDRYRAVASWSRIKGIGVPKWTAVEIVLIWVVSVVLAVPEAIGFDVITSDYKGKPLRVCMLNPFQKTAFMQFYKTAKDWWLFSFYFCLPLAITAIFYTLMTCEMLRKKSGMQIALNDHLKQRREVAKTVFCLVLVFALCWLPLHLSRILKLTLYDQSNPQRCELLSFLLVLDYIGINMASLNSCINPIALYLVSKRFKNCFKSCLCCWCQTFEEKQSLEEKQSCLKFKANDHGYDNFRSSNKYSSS
Numbered stars: 1 amine (or outer) side, 2 acyl side, 3 side chain; on linkers, the order of the positions; unused ones are H or OH. Square brackets hold non-standard residues; d marks the D form. Peptide text beside a SMILES is read from it. * marks the point of attachment. X2 = Cc1c(C)c(C)c(C[C@H](N[*:1])C(=O)[*:2])c(C)c1C; Dip = N[C@H](C(=O)O)C(c1ccccc1)c1ccccc1; Cyclohexanecarbonyl = O=C(C1CCCCC1)*
Can you tell me IC50 for the items I'm about to list?

Prompt: Form: Entry = CC[C@H](C)[C@H](NC(=O)[C@H](CCC(=O)O)NC(=O)[C@H](CC(C)C)NC(=O)[C@@H](NC(C)=O)C(c1ccccc1)c1ccccc1)C(=O)N[C@H](C(=O)N[C@@H](Cc1c[nH]c2ccccc12)C(=O)O)[C@@H](C)CC (Ac-[Dip]LEIIW-OH) | System = Endothelin receptor type B (Rattus norvegicus, UniProt P21451) | IC50 = ____
Completion: 19 nM

Prompt: Form: Entry = CC[C@H](C)[C@H](NC(=O)[C@H](CC(=O)O)NC(=O)[C@H](CC(C)C)NC(=O)[C@@H](NC(=O)C1CCCCC1)C(c1ccccc1)c1ccccc1)C(=O)N[C@H](C(=O)N[C@@H](Cc1c[nH]c2ccccc12)C(=O)O)[C@@H](C)CC (Cyclohexanecarbonyl-[Dip]LDIIW-OH) | System = Endothelin receptor type B (Rattus norvegicus, UniProt P21451) | IC50 = ____
Completion: 350 nM

Prompt: Form: Entry = CC[C@H](C)[C@H](NC(=O)[C@H](Cc1ccc(O)cc1)NC(=O)[C@H](CC(=O)O)NC(=O)[C@H](CC(C)C)NC(=O)[C@@H](NC(C)=O)C(c1ccccc1)c1ccccc1)C(=O)N[C@@H](Cc1c[nH]c2ccccc12)C(=O)O (Ac-[Dip]LDYIW-OH) | System = Endothelin receptor type B (Rattus norvegicus, UniProt P21451) | IC50 = ____
Completion: 12 nM

Prompt: Form: Entry = CC[C@H](C)[C@H](NC(=O)[C@H](CC(=O)O)NC(=O)[C@H](CC(C)C)NC(=O)[C@@H](N)Cc1c(C)c(C)c(C)c(C)c1C)C(=O)N[C@H](C(=O)N[C@@H](Cc1c[nH]c2ccccc12)C(=O)O)[C@@H](C)CC (H-[X2]LDIIW-OH) | System = Endothelin receptor type B (Rattus norvegicus, UniProt P21451) | IC50 = ____
Completion: > 10000 nM

----------
Can you tell me Ratio for the items I'm about to list?
assay: Relative affinities against endothelin A receptor (rabbit) and endothelin B receptor (rat); design: reference not given here
Structures can show the parent of a compound that is named as a salt. Numbered stars: 1 amine (or outer) side, 2 acyl side, 3 side chain; on linkers, the order of the positions; unused ones are H or OH. Square brackets hold non-standard residues; d marks the D form. Peptide text beside a SMILES is read from it. * marks the point of attachment. Diphenylacetyl = O=C(C(c1ccccc1)c1ccccc1)*; Dip = N[C@H](C(=O)O)C(c1ccccc1)c1ccccc1; Cyclohexanecarbonyl = O=C(C1CCCCC1)*; NHcHex = C1CCC(N*)CC1; CO = O=C([*:1])[*:2]; Piv = CC(C)(C)C(=O)*; Propionyl = CCC(=O)*; Tfa = O=C(C(F)(F)F)*; Bz = O=C(c1ccccc1)*; Ms = CS(=O)(=O)*
Answer with the value's number alone.

Prompt: For the compound CC[C@H](C)[C@H](NC(=O)[C@H](CC(=O)O)NC(=O)[C@H](CC(C)C)NC(=O)[C@@H](NC(=O)NC)C(c1ccccc1)c1ccccc1)C(=O)N[C@H](C(=O)N[C@@H](Cc1c[nH]c2ccccc12)C(=O)O)[C@@H](C)CC ({NHMe-CO}-[Dip]LDIIW-OH) , what Ratio is on record?
Completion: 6.1

Prompt: For the compound CC[C@H](C)[C@H](NC(=O)[C@H](CC(=O)O)NC(=O)[C@H](CC(C)C)NC(=O)[C@@H](NC(=O)C(c1ccccc1)c1ccccc1)C(c1ccccc1)c1ccccc1)C(=O)N[C@H](C(=O)N[C@@H](Cc1c[nH]c2ccccc12)C(=O)O)[C@@H](C)CC (Diphenylacetyl-[Dip]LDIIW-OH) , what Ratio is on record?
Completion: 2

Prompt: For the compound CC[C@H](C)[C@H](NC(=O)[C@H](CC(=O)O)NC(=O)[C@H](CC(C)C)NC(=O)[C@@H](NC(=O)C(F)(F)F)C(c1ccccc1)c1ccccc1)C(=O)N[C@H](C(=O)N[C@@H](Cc1c[nH]c2ccccc12)C(=O)O)[C@@H](C)CC (Tfa-[Dip]LDIIW-OH) , what Ratio is on record?
Completion: 0.42

Prompt: For the compound CC[C@H](C)[C@H](NC(=O)[C@H](CC(=O)O)NC(=O)[C@H](CC(C)C)NC(=O)[C@@H](NS(C)(=O)=O)C(c1ccccc1)c1ccccc1)C(=O)N[C@H](C(=O)N[C@@H](Cc1c[nH]c2ccccc12)C(=O)O)[C@@H](C)CC (Ms-[Dip]LDIIW-OH) , what Ratio is on record?
Completion: 2.1

Prompt: For the compound CC[C@H](C)[C@H](NC(=O)[C@H](CC(=O)O)NC(=O)[C@H](CC(C)C)NC(=O)[C@@H](NC(=O)C(C)(C)C)C(c1ccccc1)c1ccccc1)C(=O)N[C@H](C(=O)N[C@@H](Cc1c[nH]c2ccccc12)C(=O)O)[C@@H](C)CC (Piv-[Dip]LDIIW-OH) , what Ratio is on record?
Completion: 25

Prompt: For the compound CC[C@H](C)[C@H](NC(=O)[C@H](CC(=O)O)NC(=O)[C@H](CC(C)C)NC(=O)[C@@H](NC(=O)NC1CCCCC1)C(c1ccccc1)c1ccccc1)C(=O)N[C@H](C(=O)N[C@@H](Cc1c[nH]c2ccccc12)C(=O)O)[C@@H](C)CC ({NHcHex-CO}-[Dip]LDIIW-OH) , what Ratio is on record?
Completion: 29.4

Prompt: For the compound CCC(=O)N[C@H](C(=O)N[C@@H](CC(C)C)C(=O)N[C@@H](CC(=O)O)C(=O)N[C@H](C(=O)N[C@H](C(=O)N[C@@H](Cc1c[nH]c2ccccc12)C(=O)O)[C@@H](C)CC)[C@@H](C)CC)C(c1ccccc1)c1ccccc1 (Propionyl-[Dip]LDIIW-OH) , what Ratio is on record?
Completion: 3.8

Prompt: For the compound CC[C@H](C)[C@H](NC(=O)[C@H](CC(=O)O)NC(=O)[C@H](CC(C)C)NC(=O)[C@@H](NC(=O)C1CCCCC1)C(c1ccccc1)c1ccccc1)C(=O)N[C@H](C(=O)N[C@@H](Cc1c[nH]c2ccccc12)C(=O)O)[C@@H](C)CC (Cyclohexanecarbonyl-[Dip]LDIIW-OH) , what Ratio is on record?
Completion: 17.8

Prompt: For the compound CC[C@H](C)[C@H](NC(=O)[C@H](CC(=O)O)NC(=O)[C@H](CC(C)C)NC(=O)[C@@H](NC(=O)c1ccccc1)C(c1ccccc1)c1ccccc1)C(=O)N[C@H](C(=O)N[C@@H](Cc1c[nH]c2ccccc12)C(=O)O)[C@@H](C)CC (Bz-[Dip]LDIIW-OH) , what Ratio is on record?
Completion: 210

----------
target: UniProt P21451; assay: Binding affinity against endothelin B receptor rat cerebellar membranes.
Square brackets hold non-standard residues; d marks the D form. Peptide text beside a SMILES is read from it. * marks the point of attachment. Ala(1-Adamantyl) = N[C@@H](CC12CC3CC(CC(C3)C1)C2)C(=O)O; Diphenylacetyl = O=C(C(c1ccccc1)c1ccccc1)*; Dip = N[C@H](C(=O)O)C(c1ccccc1)c1ccccc1; Orn = NCCC[C@H](N)C(=O)O
# note: exactly 0.6 µM is not below, so it is Condition not met; use Condition met for IC50 strictly under it

Prompt: Hello, I'm reviewing records and need to know if IC50 of CC[C@H](C)[C@H](NC(=O)[C@H](C)NC(=O)[C@H](CC(=O)O)NC(=O)[C@H](CC(C)C)NC(=O)[C@H](NC(C)=O)C(c1ccccc1)c1ccccc1)C(=O)N[C@@H](Cc1c[nH]c2ccccc12)C(=O)O is below 0.6 µM. Could you check?
Completion: Condition met

Prompt: Hello, I'm reviewing records and need to know if IC50 of CC[C@H](C)[C@H](NC(=O)[C@H](CC(=O)O)NC(=O)[C@H](CC(C)C)NC(=O)[C@@H](NC(C)=O)C(c1ccccc1)c1ccccc1)C(=O)N[C@@H](CCCCN)C(=O)N[C@@H](Cc1c[nH]c2ccccc12)C(=O)O (Ac-[Dip]LDIKW-OH) is below 0.6 µM. Could you check?
Completion: Condition not met

Prompt: Hello, I'm reviewing records and need to know if IC50 of CC[C@H](C)[C@H](NC(=O)[C@H](CC(=O)O)NC(=O)[C@H](CC(C)C)NC(=O)[C@@H](NC(C)=O)C(c1ccccc1)c1ccccc1)C(=O)N[C@@H](CCC(=O)O)C(=O)N[C@@H](Cc1c[nH]c2ccccc12)C(=O)O (Ac-[Dip]LDIEW-OH) is below 0.6 µM. Could you check?
Completion: Condition not met

Prompt: Hello, I'm reviewing records and need to know if IC50 of CC[C@H](C)[C@H](NC(=O)[C@H](CCCCN)NC(=O)[C@H](CC(=O)O)NC(=O)[C@H](CC(C)C)NC(=O)[C@H](NC(C)=O)C(c1ccccc1)c1ccccc1)C(=O)N[C@@H](Cc1c[nH]c2ccccc12)C(=O)O is below 0.6 µM. Could you check?
Completion: Condition not met

Prompt: Hello, I'm reviewing records and need to know if IC50 of CC[C@H](C)[C@H](NC(=O)[C@H](C)NC(=O)[C@H](CC(C)C)NC(=O)[C@@H](NC(C)=O)C(c1ccccc1)c1ccccc1)C(=O)N[C@H](C(=O)N[C@@H](Cc1c[nH]c2ccccc12)C(=O)O)[C@@H](C)CC (Ac-[Dip]LAIIW-OH) is below 0.6 µM. Could you check?
Completion: Condition met

Prompt: Hello, I'm reviewing records and need to know if IC50 of CC[C@H](C)[C@H](NC(=O)[C@H](CC(=O)O)NC(=O)[C@@H](Cc1ccccc1)NC(=O)[C@@H](NC(C)=O)C(c1ccccc1)c1ccccc1)C(=O)N[C@H](C(=O)N[C@@H](Cc1c[nH]c2ccccc12)C(=O)O)[C@@H](C)CC is below 0.6 µM. Could you check?
Completion: Condition not met

Prompt: Hello, I'm reviewing records and need to know if IC50 of CC[C@H](C)[C@H](NC(=O)[C@H](CC(=O)O)NC(=O)[C@H](CC(C)C)NC(=O)[C@H](NC(C)=O)C(c1ccccc1)c1ccccc1)C(=O)N[C@@H](CC(C)C)C(=O)N[C@@H](Cc1c[nH]c2ccccc12)C(=O)O is below 0.6 µM. Could you check?
Completion: Condition not met

Prompt: Hello, I'm reviewing records and need to know if IC50 of CC[C@H](C)[C@H](NC(=O)[C@H](CC(=O)O)NC(=O)[C@H](CC(C)C)NC(=O)[C@H](NC(C)=O)C(c1ccccc1)c1ccccc1)C(=O)N[C@@H](Cc1ccccc1)C(=O)N[C@@H](Cc1c[nH]c2ccccc12)C(=O)O is below 0.6 µM. Could you check?
Completion: Condition not met

Prompt: Hello, I'm reviewing records and need to know if IC50 of CC[C@H](C)[C@H](NC(=O)[C@H](CC(=O)O)NC(=O)[C@H](CC(C)C)NC(=O)[C@H](CC12CC3CC(CC(C3)C1)C2)NC(C)=O)C(=O)N[C@H](C(=O)N[C@@H](Cc1c[nH]c2ccccc12)C(=O)O)[C@@H](C)CC (Ac-[Ala(1-Adamantyl)]LDIIW-OH) is below 0.6 µM. Could you check?
Completion: Condition not met

Prompt: Hello, I'm reviewing records and need to know if IC50 of CC[C@H](C)[C@H](NC(=O)[C@H](Cc1ccccc1)NC(=O)[C@H](CC(C)C)NC(=O)[C@@H](NC(C)=O)C(c1ccccc1)c1ccccc1)C(=O)N[C@H](C(=O)N[C@@H](Cc1c[nH]c2ccccc12)C(=O)O)[C@@H](C)CC (Ac-[Dip]LFIIW-OH) is below 0.6 µM. Could you check?
Completion: Condition met

Prompt: Hello, I'm reviewing records and need to know if IC50 of CC[C@H](C)[C@@H]1NC(=O)[C@H](CC(=O)O)NC(=O)[C@H](CC(C)C)NC(=O)[C@@H](C2c3ccccc3CCc3ccccc32)NC(=O)[C@H](Cc2c[nH]c3ccccc23)NC(=O)[C@H]([C@@H](C)CC)NC1=O is below 0.6 µM. Could you check?
Completion: Condition not met

Prompt: Hello, I'm reviewing records and need to know if IC50 of CC[C@H](C)[C@@H]1NC(=O)[C@H](CC(=O)O)NC(=O)[C@H](CC(C)C)NC(=O)[C@@H](Cc2ccccc2)NC(=O)[C@H](Cc2c[nH]c3ccccc23)NC(=O)[C@H]([C@@H](C)CC)NC1=O is below 0.6 µM. Could you check?
Completion: Condition not met

Prompt: Hello, I'm reviewing records and need to know if IC50 of CC[C@H](C)[C@H](NC(=O)[C@H](CC(=O)O)NC(=O)[C@H](CCCN)NC(=O)[C@@H](NC(C)=O)C(c1ccccc1)c1ccccc1)C(=O)N[C@H](C(=O)N[C@@H](Cc1c[nH]c2ccccc12)C(=O)O)[C@@H](C)CC (Ac-[Dip][Orn]DIIW-OH) is below 0.6 µM. Could you check?
Completion: Condition met

Prompt: Hello, I'm reviewing records and need to know if IC50 of CC[C@H](C)[C@H](NC(=O)[C@H](CC(=O)O)NC(=O)[C@H](CC(C)C)NC(=O)[C@@H](NC(C)=O)C(c1ccccc1)c1ccccc1)C(=O)N[C@H](C(=O)N[C@@H](Cc1ccc(O)cc1)C(=O)O)[C@@H](C)CC (Ac-[Dip]LDIIY-OH) is below 0.6 µM. Could you check?
Completion: Condition not met

Prompt: Hello, I'm reviewing records and need to know if IC50 of CC[C@H](C)[C@H](NC(=O)[C@H](CC(=O)O)NC(=O)[C@H](CC(C)C)NC(=O)[C@@H](NC(=O)C(c1ccccc1)c1ccccc1)C(c1ccccc1)c1ccccc1)C(=O)N[C@H](C(=O)N[C@@H](Cc1c[nH]c2ccccc12)C(=O)O)[C@@H](C)CC (Diphenylacetyl-[Dip]LDIIW-OH) is below 0.6 µM. Could you check?
Completion: Condition not met
